I'd be grateful if you could share measured inhibition at 100 µM for these entries.
# Assayed Target: ALR1 (Bos taurus)
# Construct: The calf’s kidneys were obtained after slaughtering and dissection; from tissue; host or cells: calf kidneys
# Sequence (Q3ZCJ2 whole entry): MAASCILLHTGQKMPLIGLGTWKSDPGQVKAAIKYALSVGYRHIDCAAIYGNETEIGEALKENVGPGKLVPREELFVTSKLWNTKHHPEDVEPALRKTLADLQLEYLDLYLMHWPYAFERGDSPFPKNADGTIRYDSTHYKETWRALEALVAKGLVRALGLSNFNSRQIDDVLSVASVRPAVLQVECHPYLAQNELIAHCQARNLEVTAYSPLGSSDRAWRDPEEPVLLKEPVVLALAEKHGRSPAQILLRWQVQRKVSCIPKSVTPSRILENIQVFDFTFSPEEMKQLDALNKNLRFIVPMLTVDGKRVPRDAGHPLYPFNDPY
# Run Description: ALR1 enzyme inhibition assay (enzyme extracted from calf kidneys)
# Format: biochemical, bovine
# Experimental Conditions: bovine kidney ALR1, 100 µM inhibitor; read-out: I (%, 100 µM) (ALR1)

| Smiles Input | Quantity Measured | Result |
| --- | --- | --- |
| Cc1ccc(NC(=S)NN=Cc2cc(C(C)(C)C)cc(C(C)(C)C)c2O)cc1 | inhibition at 100 µM | ≤ 31.6% |
| CC(C)(C)c1cc(C=NNC(=S)Nc2cccc(Cl)c2Cl)c(O)c(C(C)(C)C)c1 | inhibition at 100 µM | 4.27 to 26.2% |
| Cc1ccc(NC(=S)NN=Cc2cc(C(C)(C)C)cc(C(C)(C)C)c2O)c(C)c1 | inhibition at 100 µM | ≤ 31.6% |
| CC(C)(C)c1cc(C=NNC(=S)NCc2ccc(Cl)cc2)c(O)c(C(C)(C)C)c1 | inhibition at 100 µM | 4.27 to 26.2% |
| CC(C)(C)c1cc(C=NNC(=S)NCCc2ccccc2)c(O)c(C(C)(C)C)c1 | inhibition at 100 µM | ≤ 29.9% |

ALR1 (Bos taurus) data for `CC(C)(C)c1cc(C=NNC(=S)Nc2ccccc2F)c(O)c(C(C)(C)C)c1` ; its inhibition at 100 µM: 4.27 to 26.2%

----------
ALR1 (Bos taurus): recorded pIC50 for assorted compounds
Answers are plain numbers, as −log10 of the molar value.

Look at each compound and report its pIC50.
1. CCCC(CCC)C(=O)O [Valproic acid, reference compound]
2. COc1cccc(NC(=S)NN=Cc2cc(C(C)(C)C)cc(C(C)(C)C)c2O)c1

Marked response:
4.31
5.38

----------
# Assayed Target: ALR2 (Bos taurus, UniProt P16116)
Quantity Measured: pIC50
Answers are plain numbers, as −log10 of the molar value.

The examples below pair each entry with its known result.
| Smiles Input | Result Number |
| --- | --- |
| CC(C)(C)c1cc(C=NNC(=S)Nc2ccc(F)cc2)c(O)c(C(C)(C)C)c1 | 5.62 |
| CC(C)(C)c1cc(C=NNC(=S)Nc2ccc(Cl)cc2)c(O)c(C(C)(C)C)c1 | 5.84 |
| CC(C)(C)c1cc(C=NNC(=S)Nc2cccc(Cl)c2Cl)c(O)c(C(C)(C)C)c1 | 5.40 |
| COc1cccc(NC(=S)NN=Cc2cc(C(C)(C)C)cc(C(C)(C)C)c2O)c1 | 5.35 |

In the following, a different molecule is considered.
pIC50 reported for this molecule `CC(C)(C)c1cc(C=NNC(=S)Nc2ccccc2F)c(O)c(C(C)(C)C)c1` : 5.93

----------
UniProt:P15121: recorded IC50 for assorted molecules
One number for each entry, in µM.

| Smiles Input | Quantity Measured | Result Number |
| --- | --- | --- |
| CC(C)(C)c1cc(C=NNC(=S)Nc2ccc(F)cc2)c(O)c(C(C)(C)C)c1 | IC50 | 3.95 |

In the following, a different molecule is considered.
IC50 reported for this molecule `COc1cccc(NC(=S)NN=Cc2cc(C(C)(C)C)cc(C(C)(C)C)c2O)c1` : 3.27

----------
Quantity Measured: melting point

The examples below pair each entry with its known result.
| Molecule | melting point |
| --- | --- |
| CC(C)(C)c1cc(C=NNC(=S)NC2CCCCC2)c(O)c(C(C)(C)C)c1 [Compound 3h] | 168 to 170 °C |
| CC(C)(C)c1cc(C=NNC(=S)NCCc2ccccc2)c(O)c(C(C)(C)C)c1 [Compound 3o] | 174 to 176 °C |
| CC(C)(C)c1cc(C=NNC(=S)Nc2cccc(Cl)c2Cl)c(O)c(C(C)(C)C)c1 [Compound 3j] | 193 to 195 °C |
| CC(C)(C)c1cc(C=NNC(=S)NCc2ccccc2)c(O)c(C(C)(C)C)c1 [Compound 3e] | 190 to 192 °C |
| Cc1ccc(NC(=S)NN=Cc2cc(C(C)(C)C)cc(C(C)(C)C)c2O)c(C)c1 [Compound 3b] | 186 to 188 °C |

In the following, a different molecule is considered.
melting point reported for this molecule CC(C)(C)c1cc(C=NNC(=S)Nc2ccc(Br)cc2)c(O)c(C(C)(C)C)c1 [Compound 3i] : 184 to 186 °C
